# System: HCT-116
# Measurement Protocol: Inhibition of human HCT116 cells
# Type: functional, cell-based
pIC50: −log10 of the molar value.
Each entry gets -1 if its pIC50 stays under 6, and 1 if its pIC50 is 6 or above.

In [3]: df
Out[3]:
                                smiles_data  class_assignment
0  Nc1ccccc1NC(=O)c1ccc(CNC(=O)OCc2cccnc2)cc1                 1
1  COc1ccc(NCc2ccc(/C=C/C(=O)Nc3ccccc3N)cc2)cc1                -1

Exam item: decide whether the reported pIC50 for `Nc1ccccc1NC(=O)CCCCCCNC(=O)c1cccc(-c2ccccc2)c1` is at least 6. -1

Test whether the compound `COc1ccc(CNc2ccc(/C=C/C(=O)Nc3ccccc3N)cn2)cc1` records pIC50 of 6 or higher. -1

Quick check, pIC50 >= 6? `Nc1ccccc1NC(=O)c1ccc(/C=C/CNc2nccc(-c3cccnc3)n2)cc1` 1

Reported pIC50 reaches at least 6 for `Nc1ccccc1NC(=O)CCCCCCNC(=O)c1ccc(-c2ccccc2)cc1` ? -1

// inclusive: pIC50 at least 6? input: `COc1ccc(-c2ccnc(NCc3ccc(C(=O)Nc4ccccc4N)cc3)n2)cn1` 1

Decide: is the reported value of pIC50 for `Nc1ccccc1NC(=O)c1ccc(/C=C/C(=O)NCCc2c[nH]c3ccccc23)cc1` equal to or greater than 6? 1

Could you please find out whether `Nc1ccccc1NC(=O)CCCCCCNC(=O)c1ccc(-c2ccccc2)nc1` has pIC50 that meets 6 or exceeds it? -1

* * *

# Assay Target: Histone deacetylase
# Measurement Protocol: Inhibition of HDAC from human SNU16 cells
# Condition Label: snu-16
Kindly state IC50 for each of the entries shown.
Give bare numbers, in nM.

Consider the reported IC50 for these molecules:
>>> df
                                smiles_data  measure  unit  val
0  CN(C)c1ccc(C(=O)NCc2ccc(/C=C/C(=O)NO)cc2)cc1     IC50    nM  172
1     O=C(/C=C/c1ccc(CNC(=O)c2ccccn2)cc1)NO     IC50    nM  941

// for each molecule below, give its IC50
1. O=C(/C=C/c1ccc(CNC(=O)c2cccnc2)cc1)NO
2. O=C(/C=C/c1ccc(CNC(=O)c2ccc(N3CCCC3)cc2)cc1)NO

1. 370
2. 205

* * *

# Assay Target: Histone deacetylase 1 (Homo sapiens, UniProt Q13547)
# Sequence (Q13547 whole entry): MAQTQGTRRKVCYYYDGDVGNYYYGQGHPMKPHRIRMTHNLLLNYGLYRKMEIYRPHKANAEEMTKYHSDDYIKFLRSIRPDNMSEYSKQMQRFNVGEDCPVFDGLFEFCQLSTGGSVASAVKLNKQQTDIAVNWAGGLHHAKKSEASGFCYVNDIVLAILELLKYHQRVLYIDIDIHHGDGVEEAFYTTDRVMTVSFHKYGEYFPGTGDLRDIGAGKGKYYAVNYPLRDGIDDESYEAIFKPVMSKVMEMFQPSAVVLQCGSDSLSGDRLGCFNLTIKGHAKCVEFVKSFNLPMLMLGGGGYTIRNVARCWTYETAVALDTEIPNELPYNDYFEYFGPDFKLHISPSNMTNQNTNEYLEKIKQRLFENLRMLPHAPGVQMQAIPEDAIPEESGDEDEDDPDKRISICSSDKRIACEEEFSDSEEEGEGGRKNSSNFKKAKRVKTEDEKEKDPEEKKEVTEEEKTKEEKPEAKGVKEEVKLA
Measure: IC50 (nM)
One number for each entry, in nM.

                                   molecule                              assay_target  measure  unit   val
0  O=C(CN(CCCCCCC(=O)Nc1ccccc1)CC(=O)Nc1ccccc1)NO  Histone deacetylase 1 (Homo sapiens, UniProt Q13547)     IC50    nM    13
1  CC(=O)CCCCC[C@H](NC(=O)CCN1CCCCC1)C(=O)NCCc1c(-c2ccccc2)[nH]c2ccccc12  Histone deacetylase 1 (Homo sapiens, UniProt Q13547)     IC50    nM   190
2  O=C(NO)c1cc2cc(NC(=O)c3cccc4ccccc34)ccc2s1  Histone deacetylase 1 (Homo sapiens, UniProt Q13547)     IC50    nM  1070
3  CC(=O)CCCCC[C@H](NC1CCCCN1C)C(=O)Nc1cccc(-c2ccccc2)c1 (some centres undefined)  Histone deacetylase 1 (Homo sapiens, UniProt Q13547)     IC50    nM    79
4  COc1ccc2[nH]c(C)c(CN[C@@H](CCCCCC(C)=O)C(=O)Nc3cccc(-c4ccccc4)c3)c2c1  Histone deacetylase 1 (Homo sapiens, UniProt Q13547)     IC50    nM    18

Field: IC50. Fill in for each record below.
1. CC(=O)CCCCC[C@H](NC(=O)c1cnns1)C(=O)NCCc1c(-c2ccccc2)[nH]c2ccccc12
2. COc1ccc2[nH]c(C)c(CN[C@@H](CCCCCC(C)=O)C(=O)Nc3nc(-c4ccccc4)cs3)c2c1
3. CC(=O)CCCCC[C@H](NC1CCCCN1C)C(=O)Nc1nc(-c2ccccc2)cs1 (some centres undefined)
4. CC(=O)CCCCC[C@H](Nc1cncs1)C(=O)Nc1cccc(-c2ccccc2)c1

[480, 25, 55, 55]
